- Target System: T1, CRBN, Q96SW2;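 further: pooled lentiviral library of zinc finger degron-EGFP fusions in mCherry-positive Jurkat cells, FACS-sorted after compound exposure, with degron abundance counted by next-generation sequencing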
- T1 chain: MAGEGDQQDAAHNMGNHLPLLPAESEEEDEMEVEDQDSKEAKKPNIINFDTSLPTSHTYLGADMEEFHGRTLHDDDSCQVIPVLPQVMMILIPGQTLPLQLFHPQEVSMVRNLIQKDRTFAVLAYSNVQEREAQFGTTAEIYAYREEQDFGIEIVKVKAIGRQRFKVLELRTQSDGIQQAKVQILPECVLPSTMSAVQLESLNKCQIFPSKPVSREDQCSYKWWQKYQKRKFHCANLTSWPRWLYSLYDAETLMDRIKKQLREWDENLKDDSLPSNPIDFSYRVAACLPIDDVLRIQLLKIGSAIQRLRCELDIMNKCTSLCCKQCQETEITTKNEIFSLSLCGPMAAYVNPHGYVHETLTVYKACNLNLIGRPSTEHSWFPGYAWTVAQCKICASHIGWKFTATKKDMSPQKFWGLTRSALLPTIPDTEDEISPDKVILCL
- Procedure Text: log2 fold change of degron read counts, EGFP-low vs EGFP+ sorted cells (limma voom), compound-induced degradation; higher = more compound-induced degradation of the degron-EGFP fusion; degrons are variants of IKZF1/3 zinc finger 2; compound dose not given here
- Stated Conditions: Jurkat; 18 h; compound: compound 22 (5-morpholino-thalidomide)
Whole data set: some 8,300 sequences, median “log2 fold change of degron read counts, EGFP-low vs EGFP+ sorted cells (limma voom), compound-induced degradation” near -1.1, cut for the highest 2% near 3.2. The list comes from a sample in which the highest values are over-represented; it also holds close analogues and randomly drawn sequences.
Examples of sequences with documented log2 fold change of degron read counts follow.

# example entries with known answers
FLCPVCGAGFTQKGNLLRHIKL [46F_47L_49P_50V_52G_53A_54G_55F_67L_, Q9UKT9] = 0.0992
FWCPICGRHFTQKGNLLRHIKL [46F_47W_49P_50I_52G_53R_54H_55F_67L_, Q9UKT9] = 0.12
FCCEICGAEFTQKGNLLRHIKL [46F_47C_49E_50I_52G_53A_54E_55F_67L_, Q9UKT9] = 1.26
FHCPICGAQFTQKGNLLRHIKL [46F_47H_49P_50I_52G_53A_54Q_55F_67L_, Q9UKT9] = 2.8
FQCEICGAEFTQKGNLLRHIKL [46F_47Q_49E_50I_52G_53A_54E_55F_67L_, Q9UKT9] = 1.54
FGCPICGAQFTQKGNLLRHIKL [46F_47G_49P_50I_52G_53A_54Q_55F_67L_, Q9UKT9] = 2.65
FACEICGAEFTQKGNLLRHIKL [46F_47A_49E_50I_52G_53A_54E_55F_67L_, Q9UKT9] = 1.11
FGCDICGAFFTQKGNLLRHIKL [46F_47G_49D_50I_52G_53A_54F_55F_67L_, Q9UKT9] = -0.922
LYCPICGFTCTQKGNLLRHIKL [46L_47Y_49P_50I_52G_53F_54T_55C_67L_, Q9UKT9] = 3.63
FKCEICGADFTQKGNLLRHIKL [46F_47K_49E_50I_52G_53A_54D_55F_67L_, Q9UKT9] = -3.36

[Q] Fill blank: measured log2 fold change of degron read counts of the sequence LGCPICGFTCTQKGNLLRHIKL [46L_47G_49P_50I_52G_53F_54T_55C_67L_, Q9UKT9] is ____.
[A] 2.87

[Q] Field entry: FRCEICGAEFTQKGNLLRHIKL [46F_47R_49E_50I_52G_53A_54E_55F_67L_, Q9UKT9]
[A] -0.629

[Q] Field entry: FNCPICGAQFTQKGNLLRHIKL [46F_47N_49P_50I_52G_53A_54Q_55F_67L_, Q9UKT9]
[A] 1.86
